test system: MDA-MB-453; assay: drug sensitivity score (DSS), in combination with BLU9931 (DSS (weighted AUC score)); higher = more sensitive (stronger viability decrease); extreme values may be limits of the assay; details: BLU9931 100 nM; 72 h
# drug sensitivity score listing for each entry below

# compound, drug sensitivity score
records = [
    ("Clc1ccc(C(c2ccccc2Cl)C(Cl)Cl)cc1 (stereo not given)", 0),
    ("O=C(O)CNC(=O)c1c(O)c2ccccc2n(Cc2ccccc2)c1=O", 0),
    ("Oc1ccc2c(c1)CC[C@H](c1ccccc1)[C@@H]2c1ccc(OCCN2CCCC2)cc1", 0.2),
    ("C[C@@H]1CN(CC(=O)Nc2ccc3c(c2)Cc2cccc(-c4cc(=O)cc(N5CCOCC5)o4)c2S3)C[C@H](C)O1", 3.4),
    ("CC(C)(C)NC(=O)[C@H]1CC[C@H]2[C@@H]3CC[C@H]4NC(=O)C=C[C@]4(C)[C@H]3CC[C@]12C [Finasteride]", 0),
    ("CC[C@]12C=CCN3CC[C@@]4(c5cc([C@@]6(C(=O)OC)C[C@@H]7C[C@@H](C(C)(F)F)CN(Cc8c6[nH]c6ccccc86)C7)c(OC)cc5N(C)[C@H]4[C@@](O)(C(=O)OC)[C@@H]1OC(C)=O)[C@@H]32", 1.3),
    ("C[C@H](Nc1ncnc2nc[nH]c12)c1cc2cccc(Cl)c2c(=O)n1-c1ccccc1", 0),
    ("COc1ccc(-c2ccc3c(N4CCOC[C@@H]4C)nc(N4CCOC[C@@H]4C)nc3n2)cc1CO", 23.3),
    ("CN1CCN(c2ccc(C(=O)Nc3n[nH]c4ccc(Cc5cc(F)cc(F)c5)cc34)c(NC3CCOCC3)c2)CC1", 0),
    ("COc1cc2ncnc(Nc3cccc(Cl)c3F)c2cc1OC(=O)N1CCN(C)C[C@H]1C", 0.9),
    ("COc1cc(Nc2ncc3c(n2)-c2ccc(Cl)cc2C(c2c(F)cccc2OC)=NC3)ccc1C(=O)O", 1.7),
    ("COc1cc2/c(=N/c3ccc(Br)cc3F)nc[nH]c2cc1OCC1CCN(C)CC1", 0),
    ("CCN1C(=O)CNc2ncc(-c3ccc(-c4nc[nH]n4)nc3C)nc21", 12.5),
    ("CN1CCN(c2cc(C(=O)Nc3ccc4c(c3)-c3c(c(C(N)=O)nn3-c3ccc(F)cc3)CC4)c(Cl)cn2)CC1", 3.4),
    ("Cn1cc(C2=C(c3cn(C4CCN(Cc5ccccn5)CC4)c4ccccc34)C(=O)NC2=O)c2ccccc21", 0),
]

Hey, just so you know, these numbers are from the supplement of paper PMC7224384.
